For reference, IC50 measured on BACE1 (β-secretase) (Homo sapiens, UniProt P56817):
recordedMetric: IC50 (µM)

molecule: COc1cc(/C=C/C(=O)NC[C@@H](OC)c2ccc(O)cc2)ccc1O
unitLabel: µM
IC50: 16.4

[A] COc1cc(/C=C/C(=O)NC[C@@H](O)c2ccc(O)cc2)ccc1O [compound 4, S-(−)-N-trans-feruloyloctopamine]
[B] COc1cc(/C=C/C(=O)NCCc2ccc(O)c(OC)c2)ccc1O [compound 1, N-trans-feruloyl-3-methoxytyramine]
[C] COc1cc(/C=C/C(=O)NCCc2ccc(O)cc2)ccc1O [compound 2, N-trans-feruloyltyramine]
Rank the items in ascending order with respect to IC50. # respond with the labels, arranged in the requested order
B, C, A
(B: 15.7 µM, C: 37 µM, A: 110 µM)
